Cited source: paper PMC12064818

# Assayed Target: ABL1-N-HiBiT kinase domain (Homo sapiens, UniProt P00519)
# Sequence (P00519 233-500): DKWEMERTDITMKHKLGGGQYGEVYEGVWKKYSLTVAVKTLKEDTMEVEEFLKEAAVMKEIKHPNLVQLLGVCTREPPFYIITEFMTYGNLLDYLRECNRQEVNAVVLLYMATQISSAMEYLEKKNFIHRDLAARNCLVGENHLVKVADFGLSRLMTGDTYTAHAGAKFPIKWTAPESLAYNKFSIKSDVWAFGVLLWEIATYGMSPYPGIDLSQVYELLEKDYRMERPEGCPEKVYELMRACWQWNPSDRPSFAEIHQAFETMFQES
# Test Summary: SDR assay, ABL1-N-HiBiT
# Condition Summary: ABL1-N-HiBiT qHTS; average maximal SDR response
Label T when SDR Ave Max Response is at or above 20; anything below gets F.

INSERT INTO results (compound, class_name) VALUES
  ('CCOc1ccn(-c2ccc(F)cc2)c(=O)c1C(=O)Nc1ccc(Oc2ccnc(N)c2Cl)c(F)c1', 'T'),
  ('CCNC(=O)Nc1ccc(-c2nc3c(c(N4CCOC[C@@H]4C)n2)CCN(c2ncccn2)C3)cc1', 'F'),
  ('CN1CCN([C@H]2CC[C@H](n3cc(-c4ccc(Oc5ccccc5)cc4)c4c(N)ncnc43)CC2)CC1', 'T'),
  ('Cc1nc2ccc(-n3ncc(C(=O)c4cc5ccccc5[nH]4)c3N)cc2[nH]1', 'T'),
  ('O=C(Nc1ccc(OC(F)(F)F)cc1)c1sccc1NCc1ccnc2ccccc12', 'F'),
  ('O=C1CCC(N2C(=O)c3ccccc3C2=O)C(=O)N1 (centres unmarked) [Thalidomide]', 'F'),
  ('COc1ccc(CNC(=O)Nc2ncc([N+](=O)[O-])s2)cc1', 'F'),
  ('O=C(Nc1cc(C(F)(F)F)ccc1N1CCCCC1)c1ccncc1', 'F');

---

# Assayed Target: FLuc-C-HiBiT (Photinus pyralis, UniProt P08659)
# Construct: firefly luciferase with C-terminal HiBiT tag, E. coli expressed
# Sequence (P08659 whole entry, looked up): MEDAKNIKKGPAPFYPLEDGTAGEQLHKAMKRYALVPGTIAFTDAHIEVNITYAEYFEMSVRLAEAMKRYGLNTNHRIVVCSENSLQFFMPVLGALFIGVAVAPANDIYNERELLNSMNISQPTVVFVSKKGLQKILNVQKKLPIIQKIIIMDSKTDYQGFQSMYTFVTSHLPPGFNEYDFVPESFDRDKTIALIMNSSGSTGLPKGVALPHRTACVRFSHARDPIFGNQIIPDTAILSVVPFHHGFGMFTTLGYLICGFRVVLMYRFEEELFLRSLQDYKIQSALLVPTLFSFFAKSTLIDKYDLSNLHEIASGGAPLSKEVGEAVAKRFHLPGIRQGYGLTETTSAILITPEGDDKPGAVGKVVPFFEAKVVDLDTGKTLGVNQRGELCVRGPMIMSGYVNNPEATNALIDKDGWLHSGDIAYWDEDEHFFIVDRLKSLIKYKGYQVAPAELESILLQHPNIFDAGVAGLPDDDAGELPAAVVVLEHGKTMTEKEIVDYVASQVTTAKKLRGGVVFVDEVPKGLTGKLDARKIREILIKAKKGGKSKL
# Test Summary: biochemical
# Condition Summary: enzyme activity, 10 uM ATP; read-out: IC50 or SDR50 (mM) / FLuc E
Experimental Endpoint: IC50 (mM)

INSERT INTO assay_data (molecule, assayed_target, quantitative_result) VALUES
  ('COc1ccc(-c2nc3cc(F)ccc3s2)cc1OC [NCGC00344018-01]', 'FLuc-C-HiBiT (Photinus pyralis, UniProt P08659)', 0.00157),
  ('CCC(=O)N1CCc2ccc(C(=O)NC3CCCCC3)cc21 [NCGC00430262-01]', 'FLuc-C-HiBiT (Photinus pyralis, UniProt P08659)', 0.0111),
  ('CN1c2cc(C(=O)Nc3cccc(F)c3)ccc2C(=O)N2CCCCCC21 (stereo not drawn) [NCGC00452183-01]', 'FLuc-C-HiBiT (Photinus pyralis, UniProt P08659)', 0.0124),
  ('CCOC(=O)C1CCN(C(=O)c2cccc3c2CCN3C(=O)Nc2ccccc2)CC1 [NCGC00430100-01]', 'FLuc-C-HiBiT (Photinus pyralis, UniProt P08659)', 0.00176),
  ('CC(=O)N1CCNc2cc(Nc3ccc(F)cc3)ncc2C1 [NCGC00411083-01]', 'FLuc-C-HiBiT (Photinus pyralis, UniProt P08659)', 0.0057),
  ('O=C(NC1CCCN(c2cc(-c3ccc(Cl)cc3)n[nH]2)C1)c1ccc2ncccc2c1 (stereo not drawn) [NCGC00437446-01]', 'FLuc-C-HiBiT (Photinus pyralis, UniProt P08659)', 0.00495),
  ('CCOP(=O)(Cc1ccc(-c2nc3ccccc3s2)cc1)OCC [NCGC00538319-01]', 'FLuc-C-HiBiT (Photinus pyralis, UniProt P08659)', 0.0111),
  ('CC(Cc1cnccn1)Nc1ccc(-c2nc(-c3cccc(Cl)c3)no2)cn1 (stereo not drawn) [NCGC00425352-01]', 'FLuc-C-HiBiT (Photinus pyralis, UniProt P08659)', 0.0111),
  ('Cc1ccc(-n2ncc3c(N4CCC(C(N)=O)CC4)ncnc32)cc1 [NCGC00139056-01]', 'FLuc-C-HiBiT (Photinus pyralis, UniProt P08659)', 0.0124);

---

Quick reference for Enz among some molecules
# Assayed Target: FLuc-C-NLuc (firefly luciferase) (Photinus pyralis, UniProt P08659, form not given/L550V)
# Sequence (P08659 2-550 L550V, form open): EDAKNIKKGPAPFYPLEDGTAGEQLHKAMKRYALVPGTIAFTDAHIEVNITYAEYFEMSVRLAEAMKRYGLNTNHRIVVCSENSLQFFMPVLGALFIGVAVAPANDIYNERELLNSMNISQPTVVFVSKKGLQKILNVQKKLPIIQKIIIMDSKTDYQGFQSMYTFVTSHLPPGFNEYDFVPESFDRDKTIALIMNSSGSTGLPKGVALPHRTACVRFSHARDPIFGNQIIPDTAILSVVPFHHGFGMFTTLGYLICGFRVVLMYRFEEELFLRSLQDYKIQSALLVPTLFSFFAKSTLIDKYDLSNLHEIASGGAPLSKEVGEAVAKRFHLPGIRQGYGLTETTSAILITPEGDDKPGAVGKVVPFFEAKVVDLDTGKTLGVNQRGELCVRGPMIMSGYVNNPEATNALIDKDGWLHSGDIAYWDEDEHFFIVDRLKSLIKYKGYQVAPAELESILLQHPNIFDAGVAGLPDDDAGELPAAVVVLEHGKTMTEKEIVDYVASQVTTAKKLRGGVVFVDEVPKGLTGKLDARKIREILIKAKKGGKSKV
# Test Summary: Firefly luciferase (FLuc) enzymatic luminescence assay, FLuc-C-NLuc
# Format: biochemical
# Design: key: % normalized; no enzyme control = 100% inhibition, DMSO = 0
# Condition Summary: Log[Compound], M -7.35
Experimental Endpoint: Enz

INSERT INTO results (molecule, assayed_target, result) VALUES
  ('CC(NC(=O)C1CCN(C(=O)c2ncn3c2COC(c2ccc(F)cc2)C3)CC1)c1ccc(F)cc1 (centres unmarked)', 'FLuc-C-NLuc (firefly luciferase) (Photinus pyralis, UniProt P08659, form not given/L550V)', 4.82),
  ('COc1ccc(NC(=O)C2CCN(C(=O)c3ncn4c3COC(c3ccccc3)C4)CC2)cc1Cl (centres unmarked)', 'FLuc-C-NLuc (firefly luciferase) (Photinus pyralis, UniProt P08659, form not given/L550V)', -0.43),
  ('CC1CCC(NC(=O)C2CCN(C(=O)c3ncn4c3COC(c3ccc(Cl)cc3)C4)CC2)CC1 (centres unmarked)', 'FLuc-C-NLuc (firefly luciferase) (Photinus pyralis, UniProt P08659, form not given/L550V)', 4.64),
  ('CC(CNC(=O)C1CCN(C(=O)c2ncn3c2COC(c2ccccc2)C3)CC1)c1ccccc1 (centres unmarked)', 'FLuc-C-NLuc (firefly luciferase) (Photinus pyralis, UniProt P08659, form not given/L550V)', 4.23),
  ('O=C(Nc1cccc(F)c1)C1CCN(C(=O)c2ncn3c2COC(c2ccccc2)C3)CC1 (centres unmarked)', 'FLuc-C-NLuc (firefly luciferase) (Photinus pyralis, UniProt P08659, form not given/L550V)', -8.21);

---

# Assayed Target: E. coli Lig-N-HiBiT (DNA ligase) (Escherichia coli, UniProt P15042)
# Sequence (P15042 2-671): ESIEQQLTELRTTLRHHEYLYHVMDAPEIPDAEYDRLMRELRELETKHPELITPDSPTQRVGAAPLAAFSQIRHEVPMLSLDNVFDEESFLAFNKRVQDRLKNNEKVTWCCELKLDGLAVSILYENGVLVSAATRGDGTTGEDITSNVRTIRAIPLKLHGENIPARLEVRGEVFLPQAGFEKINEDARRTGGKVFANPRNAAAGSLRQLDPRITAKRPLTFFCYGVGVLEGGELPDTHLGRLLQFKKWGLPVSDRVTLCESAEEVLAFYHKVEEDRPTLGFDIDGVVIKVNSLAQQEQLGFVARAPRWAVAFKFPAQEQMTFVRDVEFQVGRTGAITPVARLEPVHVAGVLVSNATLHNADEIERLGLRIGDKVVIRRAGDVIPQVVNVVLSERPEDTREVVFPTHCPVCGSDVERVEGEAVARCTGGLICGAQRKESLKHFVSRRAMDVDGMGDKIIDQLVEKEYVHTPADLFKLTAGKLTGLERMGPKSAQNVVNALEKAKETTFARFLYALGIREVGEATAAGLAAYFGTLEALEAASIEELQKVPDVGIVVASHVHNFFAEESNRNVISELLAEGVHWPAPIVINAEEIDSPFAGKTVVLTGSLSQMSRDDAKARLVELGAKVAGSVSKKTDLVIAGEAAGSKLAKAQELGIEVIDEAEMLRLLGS
# Test Summary: biochemical
Experimental Endpoint: EC50

INSERT INTO measurements (compound, result) VALUES
  ('Nc1ncnc2c1ncn2[C@@H]1O[C@H](COP(=O)(O)OP(=O)(O)OP(=O)(O)O)[C@@H](O)[C@H]1O [ATP]', '≥ 100 µM');

---

pEC50 overview
# Assayed Target: PKA-N-HiBiT (Homo sapiens, UniProt P17612)
# Test Summary: SDR assay, PKA-N-HiBiT
pEC50: −log10 of the molar value.
Experimental Endpoint: pEC50

INSERT INTO assay_data (smiles_repr, quantitative_result) VALUES
  ('N#Cc1cccc(-c2c[nH]c3ncnc(N4CCOCC4)c23)c1', 4.71),
  ('CO[C@H]1/C=C/O[C@@]2(C)Oc3c(C)c(O)c4c(O)c(c(/C=N/N5CCN(C6CCCC6)CC5)c(O)c4c3C2=O)NC(=O)/C(C)=C\C=C\[C@H](C)[C@H](O)[C@@H](C)[C@@H](O)[C@@H](C)[C@H](OC(C)=O)[C@@H]1C', 4.79),
  ('Nc1nc(NCCNc2ncc(-n3ccnc3)c(-c3ccc(Cl)cc3Cl)n2)ccc1[N+](=O)[O-]', 4.93);

---

# Assayed Target: FLuc-C-NLuc (firefly luciferase) (Photinus pyralis, UniProt P08659, form not given/L550V)
# Test Summary: SDR assay, FLuc-C-NLuc
# Condition Summary: Log[Compound], M -7.82; absence of ATP
# key: entry, value: SDR
Experimental Endpoint: SDR

INSERT INTO assay_data (compound, result) VALUES
  ('CC(CNC(=O)C1CCN(C(=O)c2ncn3c2COC(c2ccccc2)C3)CC1)c1ccccc1 (centres unmarked)', 13.35),
  ('O=C(Nc1cccc(F)c1)C1CCN(C(=O)c2ncn3c2COC(c2ccccc2)C3)CC1 (centres unmarked)', 8.73),
  ('CC1CCC(NC(=O)C2CCN(C(=O)c3ncn4c3COC(c3ccc(Cl)cc3)C4)CC2)CC1 (centres unmarked)', 3.50),
  ('CC(NC(=O)C1CCN(C(=O)c2ncn3c2COC(c2ccc(F)cc2)C3)CC1)c1ccc(F)cc1 (centres unmarked)', 4.76),
  ('COc1ccc(NC(=O)C2CCN(C(=O)c3ncn4c3COC(c3ccccc3)C4)CC2)cc1Cl (centres unmarked)', 14.00);

---

# Assayed Target: FLuc-C-HiBiT (Photinus pyralis)
# Construct: firefly luciferase with C-terminal HiBiT tag, E. coli expressed
# Test Summary: biochemical
# Condition Summary: enzyme activity, 10 uM ATP; read-out: IC50 or SDR50 (mM) / FLuc E
IC50 reference
Experimental Endpoint: IC50 (mM)

INSERT INTO measurements (compound, assayed_target, cmp, quantitative_result) VALUES
  ('Cc1ccc(NC(=O)CCc2c(C)nc3cc(-c4ccccc4)nn3c2C)cc1F', 'FLuc-C-HiBiT (Photinus pyralis)', '=', 0.0111),
  ('CCCc1ccc(-c2nc(C3CCOC3)no2)cc1 (centres unmarked)', 'FLuc-C-HiBiT (Photinus pyralis)', '=', 0.007),
  ('COc1ccc(C(=O)Nc2cc([S+](=O)([O-])c3ccc(Cl)cc3)c(O)c(C)c2C)cc1', 'FLuc-C-HiBiT (Photinus pyralis)', '>', 0.03),
  ('Cc1ccc2nc(-c3ccc(NC(=O)COc4c(C)ccc(C)c4C)cc3)sc2c1', 'FLuc-C-HiBiT (Photinus pyralis)', '=', 0.0111),
  ('Cc1ccc(C(=O)Nc2ccc(-c3nc4ccccc4s3)c(O)c2)cc1', 'FLuc-C-HiBiT (Photinus pyralis)', '>', 0.03),
  ('CCCCCSc1nnc(-c2ccc(Br)cc2)o1', 'FLuc-C-HiBiT (Photinus pyralis)', '>', 0.03),
  ('O=C(Nc1cccc(F)c1)Nc1cccc(-c2ccc(N3CCCCC3)nn2)c1', 'FLuc-C-HiBiT (Photinus pyralis)', '=', 0.000989),
  ('Cc1nn(-c2ccc(C(C)C)cc2)c(C)c1[C@@H]1C=C[C@@H](NC(=O)COCC(=O)O)C1', 'FLuc-C-HiBiT (Photinus pyralis)', '=', 0.0202),
  ('CCN(CC)c1cc(CCC(=O)O)ccn1', 'FLuc-C-HiBiT (Photinus pyralis)', '=', 0.0014),
  ('CCOc1cccc2cc(-c3nc(-c4ccccc4C)no3)c(=O)oc12', 'FLuc-C-HiBiT (Photinus pyralis)', '=', 0.00313),
  ('COc1ccc(-c2cnc(Nc3cccc(N[S+](C)(=O)[O-])c3)c3c2CCO3)cn1', 'FLuc-C-HiBiT (Photinus pyralis)', '=', 0.018),
  ('Cc1ccc2nc(-c3ccc(NC(=O)COc4ccccc4)cc3)sc2c1', 'FLuc-C-HiBiT (Photinus pyralis)', '=', 0.00624),
  ('COc1ccc(-c2nc3ccc(N[S+](C)(=O)[O-])cc3o2)cc1', 'FLuc-C-HiBiT (Photinus pyralis)', '=', 0.00556),
  ('CCN1C(=O)CCc2cc(NC(=O)c3ccc(C(C)C)cc3)ccc21', 'FLuc-C-HiBiT (Photinus pyralis)', '=', 0.00989),
  ('O=C(NCC(F)(F)F)C1CCCN1c1nc2ncccc2o1 (centres unmarked)', 'FLuc-C-HiBiT (Photinus pyralis)', '>', 0.03),
  ('Cc1cccc(-n2ncc3c(N4CCCC(C)C4)ncnc32)c1 (centres unmarked)', 'FLuc-C-HiBiT (Photinus pyralis)', '=', 0.0007),
  ('O=C(Nc1ccc(-c2nc3ccccc3s2)c(O)c1)c1ccc(Br)cc1', 'FLuc-C-HiBiT (Photinus pyralis)', '>', 0.03),
  ('Cc1ccc(-n2ncc3c(N4CCC(Cc5ccccc5)CC4)ncnc32)cc1', 'FLuc-C-HiBiT (Photinus pyralis)', '>', 0.03),
  ('CC(C)(C)CN1CCNc2cc(Nc3ccccc3)ncc2C1', 'FLuc-C-HiBiT (Photinus pyralis)', '=', 0.00718),
  ('Cc1ncc(CC(=O)NCc2ccc3[nH]c(-c4ccccc4F)c(C)c3c2)c(=O)[nH]1', 'FLuc-C-HiBiT (Photinus pyralis)', '=', 0.0124),
  ('O=C1CC2(CCN(CC3CC3)CC2)Oc2ccccc21', 'FLuc-C-HiBiT (Photinus pyralis)', '=', 0.018),
  ('O=C(O)c1ccnc(-c2ccnc(NCCN3CCCCC3=O)n2)c1', 'FLuc-C-HiBiT (Photinus pyralis)', '=', 0.0111),
  ('O=C(O)c1ccc(-c2noc(-c3cccc(F)c3)n2)cc1', 'FLuc-C-HiBiT (Photinus pyralis)', '=', 0.00495),
  ('Cc1ccc(NC(=O)Nc2ccc(C)n(CC(=O)NC3CCCC3)c2=O)cc1', 'FLuc-C-HiBiT (Photinus pyralis)', '=', 0.0007),
  ('Cc1ccc(C(=O)Nc2ccc(-c3nc4ccccc4s3)cc2C)cc1C', 'FLuc-C-HiBiT (Photinus pyralis)', '>', 0.03),
  ('CSc1ccc(CNC(=O)C2CCN(C(=O)c3ncn4c3COC(c3ccccc3)C4)CC2)cc1 (centres unmarked)', 'FLuc-C-HiBiT (Photinus pyralis)', '=', 0.00624),
  ('O=C(NCCC1CCCCC1)c1c[nH]c2ncccc12', 'FLuc-C-HiBiT (Photinus pyralis)', '=', 0.018),
  ('CCOC(=O)C1CCCN(c2ncnc3c2cnn3-c2ccc(C)c(Cl)c2)C1 (centres unmarked)', 'FLuc-C-HiBiT (Photinus pyralis)', '>', 0.03),
  ('CCCn1c(C)cnc1CC1CCN(C(=O)C2(c3ccc(OC)cc3)CC2)C1 (centres unmarked)', 'FLuc-C-HiBiT (Photinus pyralis)', '>', 0.03),
  ('CCOc1ccc(-c2cc3c(=O)n(CCNC(=O)c4cccc(C#N)c4)ccn3n2)cc1', 'FLuc-C-HiBiT (Photinus pyralis)', '=', 0.0007),
  ('O=C(Nc1cnc(-c2ccccc2)nc1)C1CCCCC1', 'FLuc-C-HiBiT (Photinus pyralis)', '=', 0.00197),
  ('Cc1ccc(-n2ncc3c(N4CCCCC4)nc(NCCCO)nc32)cc1', 'FLuc-C-HiBiT (Photinus pyralis)', '>', 0.03),
  ('COc1ccc(C(=O)Nc2noc3ccccc23)cc1', 'FLuc-C-HiBiT (Photinus pyralis)', '=', 0.000881),
  ('COc1cccc(-c2csc(CN3CCCC(C)(NC(C)=O)C3)c2)c1 (centres unmarked)', 'FLuc-C-HiBiT (Photinus pyralis)', '=', 0.0202),
  ('Cc1nc(CN2CCOc3c(O)cc(-c4nc5ccccc5s4)cc3C2)no1', 'FLuc-C-HiBiT (Photinus pyralis)', '>', 0.03);
